IC50 reference
- experimental_target: Wee1 kinase domain (Homo sapiens)
- Construct: Wee1 kinase domain was purchased from Carna (catalog #05-177); purchased Carna 05-177
- protocol_text: Wee1 Kinase Biochemical Assay (ADP-Glo)
- assay_setup: Wee1 kinase domain, 15 uM ATP, ADP-Glo

# molecule, experimental_target, readout_label, result
measured = [
    ("C[C@H]1COC(=O)N1c1cccc(N2c3nc(Nc4ccc(O[C@@H]5CCNC5)nc4)ncc3[C@]3(C)COC(C)(C)C[C@H]23)n1 (single isomer, unassigned)", "Wee1 kinase domain (Homo sapiens)", "IC50", "100 to 1000 nM"),
]

For reference, reported IC50 for CN1CCC[C@H]1c1ccc(Nc2ncc3c(n2)N(c2cccc(N=S(C)(C)=O)n2)[C@H]2CC(C)(C)OC[C@@]32C)cc1 (single isomer, unassigned) stands at 10 to 100 nM

Memo: CNCc1cccc(N2c3nc(Nc4ccc(N5C6CCC5COC6)c(C)c4)ncc3[C@]3(C)COC(C)(C)C[C@H]23)n1 (single isomer, unassigned) , reported IC50: 100 to 1000 nM

The recorded IC50 for entry CNCc1cccc(N2c3nc(Nc4ccc([C@@H]5CCOC5)cc4)ncc3[C@]3(C)COC(C)(C)C[C@H]23)n1 (single isomer, unassigned) equals 100 to 1000 nM

Note to self: IC50 recorded for C[C@H]1COC(=O)N1c1cccc(N2c3nc(Nc4ccc(N5C[C@H]6C[C@@H]5CN6)cc4)ncc3[C@]3(C)COC(C)(C)C[C@H]23)n1 (single isomer, unassigned) was 10 to 100 nM

---

- experimental_target: Wee1 kinase domain (Homo sapiens, UniProt P30291)
- Construct: Wee1 kinase domain was purchased from Carna (catalog #05-177); purchased Carna 05-177
- Sequence (P30291 299-569 limits assumed): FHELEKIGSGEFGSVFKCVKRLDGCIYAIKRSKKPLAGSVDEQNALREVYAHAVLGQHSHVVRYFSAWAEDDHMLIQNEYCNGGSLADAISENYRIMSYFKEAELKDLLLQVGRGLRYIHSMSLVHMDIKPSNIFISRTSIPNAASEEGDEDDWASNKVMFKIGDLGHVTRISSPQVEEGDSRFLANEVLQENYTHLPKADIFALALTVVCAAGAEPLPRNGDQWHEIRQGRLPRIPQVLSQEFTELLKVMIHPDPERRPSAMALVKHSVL
- protocol_text: Wee1 Kinase Biochemical Assay (ADP-Glo)
- assay_setup: Wee1 kinase domain, 15 uM ATP, ADP-Glo
- Experimental: Wee1 Kinase Biochemical Assay Protocol Wee1 kinase domain was purchased from Carna (catalog #05-177). Wee1 kinase activity was determined with Poly(Lys,Tyr 4:1) hydrobromide as a substrate (Sigma-Aldrich) and by measuring ADP production using the ADP-Glo Kinase Assay kit (Promega) following the manufacturer's instructions. […] The ADP-Glo signal was measured using the Envision plate reader and the percentage inhibition of kinase activity calculated for each inhibitor tested. […]
readout_label: IC50

// below: answered compounds
# compound, result
data = [
    ("C[C@H]1COC(=O)N1c1cccc(N2c3nc(Nc4ccc(C5(C)COC5)cc4)ncc3[C@]3(C)COC(C)(C)C[C@H]23)n1 (single isomer, unassigned)", "100 to 1000 nM"),
    ("CNCc1cccc(N2c3nc(Nc4ccc(N5CCOCC5)cc4)ncc3[C@]3(C)COC(C)(C)C[C@H]23)n1 (single isomer, unassigned)", "10 to 100 nM"),
    ("C[C@H]1COC(=O)N1c1cccc(N2c3nc(Nc4ccc(O[C@@H]5CCN(C)C5)nc4)ncc3[C@@]3(C)COC(C)(C)C[C@@H]23)n1 (single isomer, unassigned)", "< 10 nM"),
    ("C[C@H]1COC(=O)N1c1cccc(N2c3nc(Nc4ccc(O[C@@H]5CCNC5)cc4)ncc3[C@@]3(C)COC(C)(C)C[C@@H]23)n1 (single isomer, unassigned)", "< 10 nM"),
    ("CC1(C)C[C@H]2N(c3cccc(N=S(C)(C)=O)n3)c3nc(Nc4ccc5nccn5n4)ncc3[C@@]2(C)CO1", "< 10 nM"),
    ("CNCc1cccc(N2c3nc(Nc4ccn([C@@H]5CCOC5)c(=O)c4)ncc3[C@@]3(C)COC(C)(C)C[C@@H]23)n1 (single isomer, unassigned)", "< 10 nM"),
    ("CNCc1cccc(N2c3nc(Nc4ccc([C@@H]5CCC(=O)N5C)cc4)ncc3[C@@]3(C)COC(C)(C)C[C@@H]23)n1 (single isomer, unassigned)", "< 10 nM"),
    ("C[C@H]1COC(=O)N1c1cccc(N2c3nc(Nc4ccc(C5(C)COC5)cc4)ncc3[C@@]3(C)COC(C)(C)C[C@@H]23)n1 (single isomer, unassigned)", "< 10 nM"),
    ("CN[C@H](Cc1ccc(Nc2ncc3c(n2)N(c2cccc(N4C(=O)OC[C@@H]4C)n2)[C@@H]2CC(C)(C)OC[C@]32C)cc1)C(=O)O (single isomer, unassigned)", "< 10 nM"),
    ("CNCc1cccc(N2c3nc(Nc4ccc([C@@H]5CCCO5)cc4)ncc3[C@@]3(C)COC(C)(C)C[C@@H]23)n1 (single isomer, unassigned)", "< 10 nM"),
]

// switching to the query compound
IC50 recorded for this compound, CNCc1cccc(N2c3nc(Nc4ccc(N5CCN(C)CC5)cc4)ncc3[C@@]3(C)COC(C)(C)C[C@@H]23)n1 (single isomer, unassigned) , is < 10 nM

---

This section presents compounds with their documented pIC50 values.
- experimental_target: Wee1 kinase domain (Homo sapiens)
- Construct: Wee1 kinase domain was purchased from Carna (catalog #05-177); purchased Carna 05-177
- protocol_text: Wee1 Kinase Biochemical Assay (ADP-Glo)
- assay_setup: Wee1 kinase domain, 15 uM ATP, ADP-Glo
pIC50: −log10 of the molar value.

# compound, pIC50
rows = [
    ("CNCc1cccc(N2c3nc(Nc4ccc([C@@H]5CCC(=O)N5C)nc4)ncc3[C@]3(C)COC(C)(C)C[C@H]23)n1 (single isomer, unassigned) [Example 95]", "≤ 6.00"),
    ("C[C@H]1COC(=O)N1c1cccc(N2c3nc(Nc4ccc(C5CN(C)C5)cc4)ncc3[C@]3(C)COC(C)(C)C[C@H]23)n1 (single isomer, unassigned) [Example 309]", "7.00 to 8.00"),
    ("C[C@H]1COC(=O)N1c1cccc(N2c3nc(Nc4ccc([C@]5(C)CCN(C)C5)cc4)ncc3[C@]3(C)COC(C)(C)C[C@H]23)n1 (single isomer, unassigned) [Example 350]", "7.00 to 8.00"),
    ("CNCc1cccc(N2c3nc(Nc4ccc([C@H]5CCCO5)cc4)ncc3[C@@]3(C)COC(C)(C)C[C@@H]23)n1 (single isomer, unassigned) [Example 60]", "> 8.00"),
]

Next item in the queue.
The compound Cc1cc(Nc2ncc3c(n2)N(c2cccc(N4C(=O)OC[C@@H]4C)n2)[C@H]2CC(C)(C)OC[C@@]32C)ccc1O[C@H]1CCNC1 (single isomer, unassigned) [Example 338] on Wee1 kinase domain (Homo sapiens): pIC50 was 7.00 to 8.00

---

Each entry below carries its reported pIC50.
- experimental_target: Wee1 kinase domain (Homo sapiens)
- Construct: Wee1 kinase domain was purchased from Carna (catalog #05-177); purchased Carna 05-177
- protocol_text: Wee1 Kinase Biochemical Assay (ADP-Glo)
- assay_setup: class symbols; 1 nM Wee1 enzyme, 15 uM ATP, 4 hours at 25° C.
pIC50: −log10 of the molar value.

Look over these answered cases.
# compound, pIC50
records = [
    ("CC1(C)C[C@H]2N(c3cccc(C4CCNCC4)n3)c3nc(Nc4ccc(N5CCOCC5)cc4)ncc3[C@@]2(C)CO1 (single isomer, unassigned) [Example 531]", "> 8.00"),
    ("Cc1cc(Nc2ncc3c(n2)N(c2cccc([C@@H]4CCCN4)n2)[C@@H]2CC(C)(C)OC[C@]32C)ccc1N1CCOCC1 (single isomer, unassigned) [Example 529]", "> 8.00"),
]

// next item, pIC50 requested
response.value for CN1C[C@H]2C[C@@H]1CN2c1ccc(Nc2ncc3c(n2)N(c2cccc(P(C)(C)=O)n2)[C@@H]2CC(C)(C)OC[C@]32C)cc1 [Example 778] (field: pIC50) = > 8.00

---

Listing of entries alongside the reported IC50.
- experimental_target: Wee1 kinase domain (Homo sapiens)
- Construct: Wee1 kinase domain was purchased from Carna (catalog #05-177); purchased Carna 05-177
- protocol_text: Wee1 Kinase Biochemical Assay (ADP-Glo)
- assay_setup: Wee1 kinase domain, 15 uM ATP, ADP-Glo

Study these solved cases before continuing.
# compound, IC50
rows = [
    ("CNCc1cccc(N2c3nc(Nc4ccc([C@H]5CCC(=O)N5C)nc4)ncc3[C@]3(C)COC(C)(C)C[C@H]23)n1 (single isomer, unassigned)", "100 to 1000 nM"),
    ("Cc1cc(Nc2ncc3c(n2)N(c2cccc(N=S(C)(C)=O)n2)[C@H]2CC(C)(C)OC[C@@]32C)ccc1[C@@H]1CCNC1 (single isomer, unassigned)", "100 to 1000 nM"),
]

For reference, reported IC50 for Cc1cc(Nc2ncc3c(n2)N(c2cccc(N4C(=O)OC[C@@H]4C)n2)[C@@H]2CC(C)(C)OC[C@]32C)ccc1O[C@H]1CCNC1 (single isomer, unassigned) stands at < 10 nM

---

- System: phosphorylation of Cdc2 Y15 (Wee1 substrate) in A427 cells
- protocol_text: Phosphorylated Cdc2 MSD Electrochemiluminescence Assay
- Type: cell-based
- assay_setup: Homo sapiens, A-427, pCDC2 MSD
pIC50: −log10 of the molar value.
readout_label: pIC50

Consider the worked cases shown below.
# molecule, pIC50
measured = [
    ("CC1(C)C[C@H]2N(c3cccc(N=S(C)(C)=O)n3)c3nc(Nc4ccc(O[C@@H]5CCNC5)cc4)ncc3[C@@]2(C)CO1 (single isomer, unassigned)", "6.00 to 7.00"),
    ("CC1(C)C[C@H]2N(c3cccc(N=S(C)(C)=O)n3)c3nc(Nc4ccc(O[C@H]5CCNC5)cc4)ncc3[C@@]2(C)CO1 (single isomer, unassigned)", "> 7.00"),
    ("CNCc1cccc(N2c3nc(Nc4ccc([C@@]5(C)CCN(C)C5=O)cc4)ncc3[C@@]3(C)COC(C)(C)C[C@@H]23)n1 (single isomer, unassigned)", "6.00 to 7.00"),
]

pIC50 measured on CNCc1cccc(N2c3nc(Nc4ccc(N5CCS(=N)(=O)CC5)cc4)ncc3[C@@]3(C)COC(C)(C)C[C@@H]23)n1 (single isomer, unassigned) = 6.00 to 7.00

Entry CN(C)Cc1cccc(N2c3nc(Nc4ccn(C5CCOCC5)c(=O)c4)ncc3[C@@]3(C)COC(C)(C)C[C@@H]23)n1 (single isomer, unassigned) — recorded pIC50 = 5.00 to 6.00

Origin of values: patent US20260166039A1
